Value source: ChEMBL document CHEMBL3393058

- Species on record: Homo sapiens
- Test name: Selectivity index, 1 - (inhibition of PRL3/inhibition of VHR) at 50 uM
Measure name: Selectivity index

Below, 3 compounds whose answers are already recorded.
O=C(O)c1ccc[n+]2c([O-])c(-c3ccccc3)sc12 : 0.25
COc1cc(/C=C(\C#N)C(=O)OC(C)C)cc(Br)c1O : 0.24
O=C1NC(=S)S/C1=C/c1ccc(-c2ccccc2C(=O)O)o1 : 0.54

Moving on to the next compound.
Lab note: CCOC(=O)/C(C#N)=C/c1cc(Br)c(O)c(Br)c1 gave Selectivity index of 0.44

----------
Catalogue of Selectivity index values
- Organism: Homo sapiens
- Test name: Selectivity index, 1 - (inhibition of PRL3/inhibition of PTP1B) at 50 uM
Answer field: number only, no words.

COc1cc(/C=C(\C#N)C(=O)OC(C)C)cc(Br)c1O : 0.08
CCOC(=O)/C(C#N)=C/c1cc(Br)c(O)c(Br)c1 : 0.48
O=C1NC(=S)S/C1=C/c1ccc(-c2ccccc2C(=O)O)o1 : 0.34

// O=C(O)c1ccc[n+]2c([O-])c(-c3ccccc3)sc12 : Selectivity index value = 0.25

----------
- Test name: Solubility in buffer assessed as light scattering
- Assay type: physicochemical
solubility kinetic by entry:
The answer is to be given in µM; state only the numeric part.

Sample answers from the record:
O=C1NC(=S)S/C1=C/c1ccc(-c2ccccc2C(=O)O)o1 : 335
C=CCOC(=O)/C(C#N)=C/c1cc(Br)c(O)c(OC)c1 : 138
C=CCOC(=O)/C(C#N)=C/c1ccc(O)c(Br)c1 : 311

Moving on to the next compound.
Lab note: COc1cc(/C=C(\C#N)C(=O)OC(C)C)cc(Br)c1O gave solubility kinetic of 144

----------
- Test system: HEK293
- Test name: Cytotoxicity against human HEK293 cells expressing human PRL-1 at 50 to 75 uM after 16 hrs by MTT assay
- Format: cell-based
- Condition parameters: hek293, 16 h
Measure name: Activity

// below: answered molecules
O=C(O)c1ccc[n+]2c([O-])c(-c3ccccc3)sc12 : Non-toxic
Nc1c[nH]c(=O)c2cc(-c3ccccc3)sc12 : Non-toxic
C=CCOC(=O)/C(C#N)=C/c1cc(Br)c(O)c(OC)c1 : Non-toxic
COc1cc(/C=C(\C#N)C(=O)OC(C)C)cc(Br)c1O : Non-toxic
CCOC(=O)/C(C#N)=C/c1cc(Br)c(O)c(Br)c1 : Toxic

--- query ---
Measured Activity, C=CCOC(=O)/C(C#N)=C/c1ccc(O)c(Br)c1 : Non-toxic

----------
- Tested on: HEK293
- Test name: Cytotoxicity against human HEK293 cells expressing human PRL-2 at 50 to 75 uM after 16 hrs by MTT assay
- Assay type: cell-based
- Condition parameters: hek293, 16 h
Measure name: Activity

Take a look at these entries with their results.
Nc1c[nH]c(=O)c2cc(-c3ccccc3)sc12 : Non-toxic
O=C(O)c1ccc[n+]2c([O-])c(-c3ccccc3)sc12 : Non-toxic
C=CCOC(=O)/C(C#N)=C/c1cc(Br)c(O)c(OC)c1 : Non-toxic
CCOC(=O)/C(C#N)=C/c1cc(Br)c(O)c(Br)c1 : Toxic
COc1cc(/C=C(\C#N)C(=O)OC(C)C)cc(Br)c1O : Non-toxic

The reported value for C=CCOC(=O)/C(C#N)=C/c1ccc(O)c(Br)c1 in terms of Activity is Non-toxic
